species on record: Rattus norvegicus; assay: DrugMatrix - Regimen: Daily Repeat; type: toxicity, organism-based, Sprague-Dawley; design: regimen Daily Repeat, gender Male, age 6-8 weeks; details: in vivo, po, 0 mg/kg, 120 h, tissue Plasma, route oral GAVAGE, dose level Control, time 5 day, vehicle .5 % CMC
REPORTED_PROPERTY: CREATINE PHOSPHOKINASE (u/L)
Numbers only, in u/L.

Known CREATINE PHOSPHOKINASE results, listed for orientation:
# COMPOUND, MEASURED_NUMBER
data = [
    ("O=c1cc(-c2ccccc2)oc2c1ccc1ccccc12", 183.2),
    ("CCc1cccc2c3c([nH]c12)C(CC)(CC(=O)O)OCC3 (configuration not stated)", 148.33),
    ("CC(C)[C@H](N)C(=O)OCCOCn1cnc2c(=O)[nH]c(N)nc21", 417.5),
    ("CCc1ccc(C(=O)C(C)CN2CCCCC2)cc1 (configuration not stated)", 284.5),
]

Hey, can you go through the list below and give me CREATINE PHOSPHOKINASE for every item?
1. CN1C(C(=O)Nc2ccccn2)=C(O)c2ccccc2S1(=O)=O
2. O=c1[nH]cc(F)c(=O)[nH]1
3. C[C@]12CCC(=O)C=C1CC[C@@H]1[C@@H]2C(=O)C[C@@]2(C)[C@H]1CC[C@]2(O)C(=O)CO

1. 142.5
2. 284
3. 148.33
